These measurements were taken from ChEMBL document CHEMBL1149591.

Below, each of the molecules is paired with its reported Ki value.
- assayedTarget: Sodium-dependent dopamine transporter (Homo sapiens)
- protocolText: Inhibition of human DAT expressed in COS1 cells
- Format: cell-based, COS-1
- appliedConditions: read-out: -Log Ki (converted)

molecule: COC(=O)C1=C(c2ccc(-c3ccccc3)cc2)C2CCC1N2 (stereo unspecified)
assayedTarget: Sodium-dependent dopamine transporter (Homo sapiens)
Ki (µM): 24.5

molecule: COC(=O)C1=C(c2ccc(Cl)c(Cl)c2)C2CCC1N2 (stereo unspecified)
assayedTarget: Sodium-dependent dopamine transporter (Homo sapiens)
Ki (µM): 1.1

molecule: COC(=O)C1=C(c2ccc(Cl)cc2)C2CCC1N2 (stereo unspecified)
assayedTarget: Sodium-dependent dopamine transporter (Homo sapiens)
Ki (µM): 26.9

molecule: COC(=O)C1=C(c2ccc(-c3ccccc3)cc2)C2CCC1C2 (stereo unspecified)
assayedTarget: Sodium-dependent dopamine transporter (Homo sapiens)
Ki (µM): 603

molecule: COC(=O)C1=C(c2ccc3ccccc3c2)C2CCC1N2 (stereo unspecified)
assayedTarget: Sodium-dependent dopamine transporter (Homo sapiens)
Ki (µM): 1.74

molecule: COC(=O)C1=C(c2ccccc2)C2CCC1C2 (stereo unspecified)
assayedTarget: Sodium-dependent dopamine transporter (Homo sapiens)
Ki (µM): 646

molecule: COC(=O)C1=C(c2ccc(Cl)cc2Cl)C2CCC1C2 (stereo unspecified)
assayedTarget: Sodium-dependent dopamine transporter (Homo sapiens)
Ki (µM): 22.9

molecule: COC(=O)C1=C(c2cccc(Cl)c2)C2CCC1N2 (stereo unspecified)
assayedTarget: Sodium-dependent dopamine transporter (Homo sapiens)
Ki (µM): 33.9

molecule: COC(=O)C1=C(c2cccc(Cl)c2)CCC1
assayedTarget: Sodium-dependent dopamine transporter (Homo sapiens)
Ki (µM): 34.7

molecule: COC(=O)C1=C(c2cccc(Cl)c2)CCCC1
assayedTarget: Sodium-dependent dopamine transporter (Homo sapiens)
Ki (µM): 117

molecule: COC(=O)C1=C(c2cccc(Cl)c2)C2CCC1C2 (stereo unspecified)
assayedTarget: Sodium-dependent dopamine transporter (Homo sapiens)
Ki (µM): 105

molecule: COC(=O)C1=C(c2ccc(Cl)cc2)C2CCC1O2 (stereo unspecified)
assayedTarget: Sodium-dependent dopamine transporter (Homo sapiens)
Ki (µM): 18.2

molecule: COC(=O)C1=C(c2ccccc2)C2CCC1N2 (stereo unspecified)
assayedTarget: Sodium-dependent dopamine transporter (Homo sapiens)
Ki (µM): 447

molecule: COC(=O)C1=C(c2ccc(C(C)=O)cc2)CCC1
assayedTarget: Sodium-dependent dopamine transporter (Homo sapiens)
Ki (µM): 331

molecule: COC(=O)C1=C(c2ccc(Cl)c(Cl)c2)CCC1
assayedTarget: Sodium-dependent dopamine transporter (Homo sapiens)
Ki (µM): 1.95

molecule: COC(=O)C1=C(c2ccc3ccccc3c2)CCCC1
assayedTarget: Sodium-dependent dopamine transporter (Homo sapiens)
Ki (µM): 11.7

====

- assayedTarget: UniProt Q01959
- protocolText: Inhibition of human DAT expressed in COS1 cells
- Format: cell-based, COS-1
- appliedConditions: read-out: -Log Ki (converted)
Below, each of the compounds is paired with its reported Ki value.

compound: COC(=O)C1=C(c2ccc3ccccc3c2)C2CCC1C2 (stereo unspecified)
Ki (µM): 4.27
//
compound: COC(=O)C1=C(c2ccccc2Cl)C2CCC1C2 (stereo unspecified)
Ki (µM): 372
//
compound: COC(=O)C1=C(c2cccc(Cl)c2Cl)C2CCC1C2 (stereo unspecified)
Ki (µM): 14.8
//
compound: COC(=O)C1=C(c2ccc(Cl)c(Cl)c2)C2CCC1C2 (stereo unspecified)
Ki (µM): 6.76
//
compound: COC(=O)C1=C(c2ccc3ccccc3c2)CCC1
Ki (µM): 4.17
//
compound: COC(=O)C1=C(c2ccc(Cl)cc2)C2CCC1C2 (stereo unspecified)
Ki (µM): 25.1

====

Below, each of the molecules is paired with its reported pKi value.
- assayedTarget: Sodium-dependent dopamine transporter (Homo sapiens, UniProt Q01959)
- Sequence (Q01959 whole entry): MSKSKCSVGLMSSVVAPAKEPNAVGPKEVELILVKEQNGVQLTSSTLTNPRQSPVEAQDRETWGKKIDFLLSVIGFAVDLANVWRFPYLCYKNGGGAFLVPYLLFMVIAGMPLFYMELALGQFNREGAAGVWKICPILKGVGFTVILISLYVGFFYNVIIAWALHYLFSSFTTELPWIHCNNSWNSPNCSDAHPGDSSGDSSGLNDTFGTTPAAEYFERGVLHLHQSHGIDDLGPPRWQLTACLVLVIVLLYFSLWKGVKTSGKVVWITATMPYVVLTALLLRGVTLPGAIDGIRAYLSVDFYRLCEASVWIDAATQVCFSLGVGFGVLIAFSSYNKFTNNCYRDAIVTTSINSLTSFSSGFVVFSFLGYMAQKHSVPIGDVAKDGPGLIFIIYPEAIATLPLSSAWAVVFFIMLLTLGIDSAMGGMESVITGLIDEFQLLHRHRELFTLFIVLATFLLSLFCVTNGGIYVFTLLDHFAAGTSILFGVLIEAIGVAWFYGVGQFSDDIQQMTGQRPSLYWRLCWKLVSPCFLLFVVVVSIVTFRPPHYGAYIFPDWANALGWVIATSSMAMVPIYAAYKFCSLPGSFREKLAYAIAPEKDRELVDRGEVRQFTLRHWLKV
- protocolText: Inhibition of human DAT expressed in COS1 cells
- Assay type: cell-based, COS-1
- appliedConditions: read-out: Ki
pKi: −log10 of the molar value.
outcomeMeasure: pKi

molecule: COC(=O)C1=C(c2ccc([N+](=O)[O-])cc2)C2CCC1N2 (centres undefined)
recordedResult: 4.17
//
molecule: COC(=O)C1=C(c2ccc(C)c(F)c2)C2CCC1C2 (centres undefined)
recordedResult: 4.25
//
molecule: COC(=O)C1=C(c2cc(C)c(C)cc2C)C2CCC1C2 (centres undefined)
recordedResult: 4.49
//
molecule: COC(=O)C1=C(c2cccc([N+](=O)[O-])c2)C2CCC1N2 (centres undefined)
recordedResult: 3.63
